Assay: solvent given as SMILES
Conditions: in Cc1ccccc1
Endpoint Label: emission maximum
Record the result as number plus unit.

Some solved cases for reference:
# Smiles Notation, emission maximum
data = [
    ("CCCCCCCCCCCCOc1ccc(C#Cc2ccc(C#Cc3ccc(OCCCCCCCCCCCC)c(OCCCCCCCCCCCC)c3)c3nc4c5ccccc5c5ccccc5c4nc23)cc1OCCCCCCCCCCCC", "541 nm"),
    ("COc1ccccc1-c1nc2c3cccnc3c3ncccc3c2n1-c1ccccc1", "396 nm"),
]

Documented emission maximum of Cc1ccccc1N(c1ccc(C(C)(C)C)cc1)c1ccc2ccc3c(N(c4ccc(C(C)(C)C)cc4)c4ccccc4C)ccc4ccc1c2c43 : 462 nm

###

Assay: solvent given as SMILES
Conditions: in C1CCOC1
Field 'label' (enum: 1 (yes) / 0 (no)). Set to 1 (yes) when emission maximum is strictly under 500 nm; else 0 (no).

# Compound, Group
rows = [
    ("c1ccc(-c2nc(-c3ccc(-c4nc(-c5ccccc5)c(-c5ccccc5)[nH]4)s3)[nH]c2-c2ccccc2)cc1", "1 (yes)"),
]

Take the compound O=C(c1ccc(N2c3ccccc3Sc3ccccc32)cc1)c1ccc2sc3ccccc3c2c1 and say whether its emission maximum is less than 500 nm.
0 (no)

State whether 500 nm exceeds emission maximum recorded for CC(C)(C)c1ccc2c(c1)sc1[n+]2[B-](F)(F)n2c(c3cccc4c(Br)ccc2c43)=C1C#N .
0 (no)

Lab note: emission maximum threshold 500 nm. Does this compound come in strictly under it? CC1=[N+]2C(=C(c3c4ccccc4cc4ccccc34)c3ccc(C)n3[B-]2(F)F)C=C1
0 (no)

State whether 500 nm exceeds emission maximum recorded for N#C[Se]CCCCCOc1ccc2ccc(=O)oc2c1 .
1 (yes)

Is the reported emission maximum for N#Cc1c(N2CCCCC2)cc(-c2ccc3ccccc3c2)c2c1Cc1ccccc1-2 strictly below 500 nm?
1 (yes)

Could you please tell me whether emission maximum recorded for CC1(C)c2ccccc2N(c2ccc3c(ccc4nc5ccc6cc(N7c8ccccc8C(C)(C)c8ccccc87)ccc6c5nc43)c2)c2ccccc21 is less than 500 nm?
0 (no)

###

Measured emission maximum of individual entries
Experiment: solvent given as SMILES
Conditions: in C1CCOC1
Give the number; nm is assumed, so skip it.

Examples with answers:
# Compound, Endpoint Label, Observed
records = [
    ("c1ccc(-c2ccc(-c3ccccc3)cc2)cc1", "emission maximum", 340),
    ("CCOC(=O)C1=CN(c2ccccc2)C=C(C(=O)OCC)C1", "emission maximum", 426),
    ("COc1ccc(/C=C/C=C/C=C/c2ccc([N+](=O)[O-])cc2)cc1", "emission maximum", 611),
    ("O=C1OC(=O)c2ccc(N(c3ccccc3)c3c4ccccc4cc4ccccc34)c3cccc1c23", "emission maximum", 591),
    ("CC(C)(C)c1ccc2c(c1)c1cc(C(C)(C)C)ccc1n2-c1cccc(C(=O)c2cccc(-n3c4ccc(C(C)(C)C)cc4c4cc(C(C)(C)C)ccc43)n2)n1", "emission maximum", 378.66),
    ("CSc1sc(C(N)=O)c2nnn(C)c(=O)c12", "emission maximum", 496),
]

Noted for NS(=O)(=O)c1ccc(N2N=C(c3ccc(O)cc3)CC2c2ccc(Cl)cc2)cc1 (configuration not stated) : its emission maximum reads 418

###

Test: solvent given as SMILES
Details: in CCO
Endpoint Label: emission maximum
Please answer using a numeric value trailed by its unit.

# Molecule, Observed
data = [
    ("CCC1=C(C)C2=C(c3c4ccccc4c(C)c4ccccc34)c3c(C)c(CC)c(C)n3[B-](F)(F)[N+]2=C1C", "538 nm"),
]

// emission maximum lookup, molecule = O=C(Cc1ccccc1)OCc1ccc2c3cccc4cccc(c5cccc1c52)c43 , result: 445 nm

Kindly note the recorded emission maximum for CC1=[N+]2C(=C(c3c4ccccc4cc4ccccc34)c3ccc(C)n3[B-]2(F)F)C=C1 , which is 524 nm

Entry CCC1=C(C)C2=Cc3cc(I)cn3[B-](F)(F)[N+]2=C1C — recorded emission maximum = 543 nm

molecule c1ccc2c(-n3cnc4ccccc43)cccc2c1 , emission maximum observed: 360 nm

emission maximum reported for this molecule CC/[NH+]=c1\cc2oc3cc(NCCC(=O)NC(C)C(=O)OC)c4ccccc4c3nc-2cc1C (stereo unspecified) : 644 nm

The reported emission maximum of the molecule c1ccc2c(c1)[nH]c1cccnc12 was 385 nm

Briefly, emission maximum measured for N#C/C(=N/Nc1ccc(C#N)cc1)c1nc(-c2ccccc2)cs1 : 486 nm

response.value for CC(=O)c1ccc2ccc3c(NCCC(=O)NCCCCCCc4nc5c(=O)[nH]c(N)nc5n4[C@H]4C[C@H](O)[C@@H](CO)O4)ccc4ccc1c2c43 (field: emission maximum) = 559 nm

Form: molecule = CN1c2cc3nc4cc(Br)c(Br)cc4nc3cc2N(C)C1(C)C ; emission maximum = 500 nm

Record summary for Cc1cccc2cc3c(=O)n(C)c(=O)n(C)c3nc12 : reported emission maximum = 423 nm

Data provenance is the Deep4Chem optical property database.
